Tested on: PL-21 cells
Experiment: MTT cytotoxicity assay in PL-21 cells
Format: cell-based, Human
Details: 72 hours, 6 replicates, read-out: IC50 (μM) (mean ± SD)
Procedure: Human MV-4-11 and PL-21 cell lines were used to evaluate fucoxanthin and amarouciaxanthin A effects in combination with the BCL-2 family inhibitor Navitoclax (ABT-263) and Venetoclax (ABT-199). Cells were cultured in RPMI media supplemented with 10% FCS at 37° C. in a humidified 5% CO2-atmosphere, and were consistently free of mycoplasma, as evaluated by PCR. All passages were performed between 80 and 90% of confluence and with viability above 90%. […]
Metric name: IC50 (µM)
API: value field is a number in µM; no unit string.

[in] What does the record list as IC50 for CC1(C)CCC(c2ccc(Cl)cc2)=C(CN2CCN(c3ccc(C(=O)NS(=O)(=O)c4ccc(N[C@H](CCN5CCOCC5)CSc5ccccc5)c(S(=O)(=O)C(F)(F)F)c4)cc3)CC2)C1 ?
[out] 1.22
